# System: A549/ATCC NSCLC
# method: NCI-60 one-dose screen, 48 h
# assay-conditions: 10 µM unless noted
Compounds without any hit were thinned out: in the full panel of roughly 83,000, 20% have a hit. Calls of active or inactive are those of the source. How the source made its calls: active means growth percent below 10; inactive means the rest.
Possible outcomes: 1.0 = active, 0.0 = inactive

INSERT INTO assay_data (molecule, group) VALUES
  ('Nc1nc(N)c2nc(CNc3ccc(C(=O)CC(CCC(=O)O)C(=O)O)cc3)cnc2n1 (stereo unspecified)', 1.0),
  ('O=C1Nc2cc(Cl)ccc2/C1=C/c1ccc(N2CCOCC2)s1', 0.0),
  ('O=C1CCCCN1CCCCC#Cc1ccccc1C#Cc1ccc([N+](=O)[O-])cc1', 0.0),
  ('C[N+](C)(C)c1ccc(CC2c3ccccc3-c3ccccc32)cc1', 0.0),
  ('CCSc1nnc(NC(=O)Cc2ccc(Cl)cc2)s1', 0.0),
  ('C/C1=C\CCC2(C)OC2CC2CCC(C)(O)C(CC1)C2(C)C (stereo unspecified)', 0.0);

###

Parameter: growth. Scope: all listed entries.
# Test system: SF-539 CNS
# method: NCI-60 one-dose screen, 48 h (100 = growth as untreated, 0 = no growth, -100 = all killed)
# assay-conditions: 10 µM unless noted
# Description: Cells are grown in 96 well plates and exposed to the test compound for 48 hours. Compounds are tested at a single concentration, which is 10^-5 M for most compounds. The reported endpoint is percent growth (GI% or GIPRCNT), where numbers from 0 - 100% represent growth inhibition, and numbers from -100% - 0 represent cell death. For example, a value of 40 represents 60% growth inhibition. A value of 0 means no net growth occurred over the course of the experiment. […]
Compounds without any hit were thinned out: in the full panel of roughly 83,000, 20% have a hit.
endpoint-name: growth (%)

INSERT INTO assay_data (molecule, endpoint_name, numeric_value) VALUES
  ('COc1ccc(/C=C/c2nc(N3CCOCC3)c3nc(Cl)c(Cl)cc3n2)cc1OC', 'growth', 98.8),
  ('CC(C)N(Cc1ccc(CN(C(=O)CCl)C(C)C)cc1)C(=O)CCl', 'growth', -84),
  ('COc1cccc(NC(=O)Cn2cc3c(=O)oc4ccccc4c3n2)c1', 'growth', 102),
  ('C=C1C(=O)O[C@H]2[C@H]1CC/C(COC(=O)NCc1cc(OC)cc(OC)c1)=C\CC[C@@]1(C)O[C@@H]21', 'growth', 5.25),
  ('CCNCc1ccncc1', 'growth', 103),
  ('CCn1cc(C(=O)O)c(=O)c2cc(F)c(N3CCN(S(=O)(=O)c4ccc(Cl)cc4Cl)CC3)cc21', 'growth', 8.88),
  ('C=CCOc1cccc(/C=C/C(=O)c2sc(Nc3cccnc3)nc2C)c1', 'growth', 76.7),
  ('CCOC(=O)C(Cc1ccccc1)n1c(O)c(C=Nc2ccc(C(=O)OCCN(CC)CC)cc2)sc1=O (stereo not given)', 'growth', 86.5),
  ('CCCC(C(=O)OCC)C(C)OC(=O)OCC (stereo not given)', 'growth', 107),
  ('CC(Br)C(Br)c1cc2c(cc1Br)OCO2 (stereo not given)', 'growth', 91.1);

###

# Test system: TK-10 renal
# method: NCI-60 one-dose screen, 48 h
# assay-conditions: 10 µM unless noted
The panel holds about 83,000 compounds, 20% with a hit somewhere; the sample as a whole holds those more often. Calls of active or inactive are those of the source. The calls were made as follows: active = growth percent below 10; inactive = the rest.
Possible outcomes: YES (active), NO (inactive)

INSERT INTO measurements (compound, group) VALUES
  ('CC/C(=C(\c1ccc(O)cc1)c1ccc(OCCN(C)CCN(C)C(=O)CCC(=O)c2c(C)[nH]c(/C=C3\N=C(c4ccc[nH]4)C=C3OC)c2C)cc1)c1ccccc1', 'NO'),
  ('C#CCC1(c2ccc(F)c(F)c2)NS(=O)(=O)c2ccccc21 (centres undefined)', 'NO'),
  ('CCCCCCC[C@@H](O)CC(=O)N[C@H](CCCCN)C(=O)N[C@H](Cc1c[nH]c2ccccc12)C(=O)NC(CCCCN)C(=O)N[C@H](CC(C)C)C(=O)N[C@H](Cc1ccccc1)C(=O)N[C@H](CCCCN)C(=O)N[C@H](CCCCN)C(=O)N[C@H](CC(C)C)C(=O)N1CCCC1C(=O)N[C@H](CCCCN)C(=O)N[C@H](Cc1ccccc1)C(=O)N[C@H](CC(C)C)C(=O)N[C@H](Cc1c[nH]cn1)C(=O)N[C@H](CC(C)C)C(=O)N[C@H](C)C(=O)N[C@H](CCCCN)C(=O)N[C@H](CCCCN)C(=O)N[C@H](Cc1ccccc1)C(=O)O (some centres undefined)', 'YES'),
  ('COC1=CC(c2ccc[nH]2)=N/C1=C\c1[nH]c(C)c(CCCn2cc(CCCCCCCCC[C@@H]3Cc4cc(O)ccc4C4CC[C@]5(C)[C@@H](O)CC[C@H]5C43)nn2)c1C (some centres undefined)', 'NO'),
  ('CCCCNC(=O)NS(=O)(=O)c1ccc(N2N=C(c3ccc(C)cc3C)CC2c2ccc(OC)cc2)cc1 (centres undefined)', 'NO'),
  ('Nc1nc(-c2cc3ccccc3o2)cc(=O)c(=O)[nH]1', 'NO'),
  ('O=C(CN1CCOCC1)Nc1ccc(-c2nc3ccccc3s2)cc1', 'NO'),
  ('O=C(CNc1ccc(Cl)cc1)Nc1ccc(-c2nc3ccccc3s2)cc1', 'NO'),
  ('COc1ccc(S(=O)(=O)Nc2cc(/C=C\c3cc(OC)c(OC)c(OC)c3)cc(OC)c2OC)cc1OC', 'NO'),
  ('Clc1ccc(-c2nc(-c3ccco3)cn3ccnc23)cc1', 'NO'),
  ('C/C(=C\c1csc(C)n1)[C@@H]1C[C@@H]2O[C@]2(C)CCC[C@H](C)[C@H](O)[C@@H](C)C(=O)C(C)(C)[C@@H](O)CC(=O)N1', 'YES'),
  ('COc1cc(OC)c(C(=O)/C=C/c2ccc(C#N)cc2)c(OC)c1', 'NO'),
  ('Cc1ccnc2nc(C(=O)OCC(=O)Nc3ccc(-c4ccccc4)cc3)nn12', 'NO'),
  ('COC1=CC(c2ccc[nH]2)=N/C1=C\c1[nH]c(C)c(C(=O)CCCCC(=O)Oc2ccc3c(c2)CCC2C3CC[C@]3(C)[C@@H](O)CC[C@@H]23)c1C (some centres undefined)', 'NO'),
  ('COc1ncc(-c2ccc3ncnc(Nc4cccc(Cl)c4)c3c2)cc1NS(=O)(=O)CCN1CCOCC1', 'YES'),
  ('COc1ccc(OC)c(/C=C2\Oc3cc(OCCN4CCCC4)ccc3C2=O)c1', 'NO'),
  ('COc1cccc(-n2cc(-c3nc(Cl)c4ccccc4n3)nn2)c1', 'NO'),
  ('CC(C)C[C@H](NC(=O)[C@H](Cc1ccccc1)n1ccc(N2CCCCC2)cc1=O)B(O)O', 'NO'),
  ('CCC1CCc2nc3sc(C(=O)Nc4cccc(C)c4)c(N)c3cc2C1 (centres undefined)', 'NO'),
  ('FC(F)(F)c1cccc(-n2nnc3cnc(Nc4ccc(N5CCCCC5)cc4)nc32)c1', 'NO'),
  ('O=C(O)c1ccc(-n2c(=O)c3ccccc3c3ccccc3c2=O)cc1', 'NO'),
  ('CN(C)C1CCC(NC2=CC(=O)C=CC2=O)CC1 (centres undefined)', 'NO'),
  ('CCCCNc1nnc(-c2cc(-c3cc4ccccc4o3)nn2-c2ccccc2)o1', 'NO'),
  ('O=c1cc(C2NCCc3c2[nH]c2ccccc32)c2c(ccc3ccccc32)o1 (centres undefined)', 'NO'),
  ('O=S(=O)(NCCCNc1cc(-c2cn(-c3ccccc3)nc2-c2cccc(O)c2)ccn1)c1ccc(Br)cc1', 'NO'),
  ('CC(C)(C)OC(=O)N[C@@H](Cc1ccccc1)C(=O)N(Cc1ccccc1)C1(C(=O)NCc2ccccc2)CCN(Cc2ccccc2)CC1', 'NO'),
  ('Cc1cc2c(C(C)C)c(O)c(O)c(C=NCCCCCCC(=O)O)c2c(O)c1-c1c(C)cc2c(C(C)C)c(O)c(O)c(C=NCCCCCCC(=O)O)c2c1O', 'NO'),
  ('COc1ccc(-c2nnc(COc3ccc(NS(=O)(=O)c4ccc(OC)cc4)cc3F)o2)cc1', 'NO'),
  ('Nc1cccc2c1CN(C1CCC(=O)NC1=O)C2=O (centres undefined)', 'NO'),
  ('COc1ccc(-n2c(C)cc(-c3ccccc3)c2C)cc1', 'NO'),
  ('CC1=C(C#N)C(C)(C)C(C#N)=C(C)N1', 'NO'),
  ('COc1cc(C2C=C(C)N=C3SC=C(C)N32)cc(OC)c1OC (centres undefined)', 'YES'),
  ('O=C1NC(Cc2c[nH]c3ccccc23)C(=O)N1Cc1ccc(Cl)cc1 (centres undefined)', 'NO'),
  ('N=C(N)c1ccc(-c2ccc(-c3ccc(Cl)cc3)o2)nc1', 'YES');
